Origin of measurements: PubChem BioAssay

experiment_summary: JHH-DIPG-1 glioma cell viability, MIPE5.0 library, CellTiter-Glo luminescence, qHTS (AID 1347067);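 further: cells exposed to compound for 48 hours before readout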
test_settings: JHH-DIPG-1 glioma viability, CellTiter-Glo ATP luminescence
Results filed as inconclusive are left out. Active and inactive are the calls of the source. Cut-off not given; nearly all actives show AC50 up to about 26 µM.
Could you please pick one outcome from this set? True for active, False for inactive

Please review the following examples before continuing.
C=CC(=O)Nc1cccc(Oc2nc(Nc3ccc(N4CCN(C)CC4)cc3OC)ncc2Cl)c1 True
CCn1c(=O)c(-c2ccc(-c3cncc(C)n3)cc2Cl)cc2cnc(NCCC3CCN(C)CC3)nc21 False
Cc1cc(/C=c2/sc3nc4ccccc4n3c2=O)c(C)n1-c1ccccc1 False

Query block: Outcome logged for CC(=O)NCCC(=O)N[C@@H](CCC(N)=O)C(=O)N[C@@H](CO)C(=O)N[C@@H](CCC(N)=O)C(=O)N[C@@H](CCC(N)=O)C(=O)N[C@H](C(=O)N[C@@H](Cc1ccccc1)C(=O)N[C@]1(C)CCCCCC/C=C\CCC[C@@](C)(C(=O)N[C@@H](CCC(N)=O)C(=O)N[C@@H](CC(N)=O)C(N)=O)NC(=O)[C@H](CC(C)C)NC(=O)[C@H](CC(C)C)NC(=O)[C@@H](CCCNC(=N)N)NC(=O)[C@H](Cc2c[nH]c3ccccc23)NC(=O)[C@H](CC(C)C)NC(=O)[C@H](CC(N)=O)NC1=O)[C@H](C)O in this assay:
Result block: False

Query block: Outcome logged for Cc1c(CN2CCN(C(=O)[C@H](C)O)CC2)sc2c(N3CCOCC3)nc(-c3cnc(N)nc3)nc12 in this assay:
Result block: True

Query block: Outcome logged for CC(C)Oc1cc(Nc2nc(N[C@@H](C)c3ccc(F)cn3)ncc2Cl)[nH]n1 in this assay:
Result block: True

Query block: Outcome logged for CO[C@H]1C[C@@H]2CC[C@@H](C)[C@@](O)(O2)C(=O)C(=O)N2CCCC[C@H]2C(=O)O[C@H]([C@H](C)C[C@@H]2CC[C@@H](OP(C)(C)=O)[C@H](OC)C2)CC(=O)[C@H](C)/C=C(\C)[C@@H](O)[C@@H](OC)C(=O)[C@H](C)C[C@H](C)/C=C/C=C/C=C/1C in this assay:
Result block: True

Query block: Outcome logged for N[C@@H](CCC(=O)O)C(=O)N[C@@H](Cc1c[nH]c2ccccc12)C(=O)O in this assay:
Result block: False

Query block: Outcome logged for Cc1cnc(NC(=O)c2cc(Oc3cnc(C(=O)N(C)C)nc3)c3cc(C)oc3c2)cn1 in this assay:
Result block: False

Query block: Outcome logged for Cn1cnc(=N)c2[nH]cnc21 in this assay:
Result block: False

* * *

experiment_summary: viability loss in pontine glioma line – cell-based, SU-DIPG-XXV, MIPE5.0, CellTiter-Glo, qHTS, dose response (AID 1347065);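 further: cells exposed to compound for 48 hours before ATP readout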
test_settings: CellTiter-Glo ATP luminescence
Results filed as inconclusive are left out. The source made the active and inactive calls. The limit is not given here; nearly all actives have AC50 up to about 26 µM.
Could you please pick one outcome from this set? active, inactive

Query block: Outcome logged for Cc1cc(Nc2cc(N)ncn2)c(=O)n2c1C(=O)NC21CCCCC1 in this assay:
Result block: inactive

Query block: Outcome logged for COc1cc2nc(-c3ccc(N4CCN(C)CC4)cc3)nc(NCCN3CCOCC3)c2cc1OC in this assay:
Result block: active

Query block: Outcome logged for Cc1cc(C)c(S(=O)(=O)N(CCc2cccc(Br)c2)Cc2ccc(-c3cccc(S(C)(=O)=O)c3)cc2)c(C)c1 in this assay:
Result block: inactive

Query block: Outcome logged for Clc1ccc(COC(Cn2ccnc2)c2ccc(Cl)cc2Cl)cc1 (centres undefined) in this assay:
Result block: active

Query block: Outcome logged for c1ccc(CNCc2ccc(CN3CCCNCCNCCCNCC3)cc2)nc1 in this assay:
Result block: inactive

Query block: Outcome logged for Cc1cnc(-c2ccccc2C(C)C)nc1NCc1ccc(-n2ccnn2)cc1 in this assay:
Result block: inactive

Query block: Outcome logged for O=C(/C=C/c1ccc(CN(CCO)CCc2c[nH]c3ccccc23)cc1)NO in this assay:
Result block: active

Query block: Outcome logged for CC(C)(C)c1cc(C(=O)O)c(NC(=O)Nc2ccc3[nH]ncc3c2)s1 in this assay:
Result block: inactive

Query block: Outcome logged for O=C(CCCCCCNC(=O)c1cnc(N(c2ccccc2)c2ccccc2)nc1)NO in this assay:
Result block: active

Query block: Outcome logged for Cc1cc(C(=O)N2CCN(c3cccc(Cl)c3)CC2)n(-c2ccccc2)n1 in this assay:
Result block: active

Query block: Outcome logged for Nc1ncnc(Nc2ccc(OCc3ccccc3)c(Cl)c2)c1/C=N/OCCN1CCOCC1 in this assay:
Result block: active

Query block: Outcome logged for CN(C)c1cc(NC(=O)CNC(C)(C)C)c(O)c2c1C[C@H]1C[C@H]3[C@H](N(C)C)C(=O)C(C(N)=O)=C(O)[C@]3(O)C(=O)C1=C2O in this assay:
Result block: inactive

Query block: Outcome logged for CN[C@@H]1CN(c2ccc3c(=O)c(C(=O)O)cn(-c4nccs4)c3n2)C[C@H]1OC in this assay:
Result block: active

Query block: Outcome logged for C=C1C[C@H]2C=Nc3cc(OCCCOc4cc5c(cc4OC)C(=O)N4CC(=C)C[C@H]4C=N5)c(OC)cc3C(=O)N2C1 in this assay:
Result block: active

Query block: Outcome logged for CCC(C(=O)O)C1CCC(C)C(C(C)C(O)C(C)C(=O)C(CC)C2OC3(C=CC(O)[C@@]4(CC[C@](C)(C5CC[C@@](O)(CC)C(C)O5)O4)O3)C(C)CC2C)O1 (some centres undefined) in this assay:
Result block: active

Query block: Outcome logged for CCO[C@@H]1OC(=O)C[C@@H]1NC(=O)[C@@H]1CCCN1C(=O)[C@@H](NC(=O)c1ccc(N)c(Cl)c1)C(C)(C)C in this assay:
Result block: inactive

Query block: Outcome logged for CCC(=O)O[C@]1(C(=O)CO)CC[C@H]2[C@@H]3CCC4=CC(=O)CC[C@]4(C)[C@H]3CC[C@@]21C in this assay:
Result block: inactive

Query block: Outcome logged for O=C(c1cncc(Br)c1)N1CCC(N2CCCC2)CC1 in this assay:
Result block: inactive

Query block: Outcome logged for CCCCOc1c(C(=O)c2c(F)cc(C)cc2F)cnc2n[nH]cc12 in this assay:
Result block: active

* * *

Task for the reader: assign each of the following compounds its reported cell count.
experiment_summary: viability loss with induced miR-34 in A549 – imaging, A549 dox-inducible miR-34, nuclei and caspase counts, primary screen (AID 1347080)
test_settings: A549 miR-34 inducible, Hoechst nuclei count, 48 h; measured here: total cells without miR-34 induction
One number for each entry.

compound	val
CCCC1([C@@H](O)C/C=C/[C@H]2[C@H](O)CC(=O)[C@@H]2CCCCCCC(=O)O)CCC1	6280

Please give cell count for each item listed below.
1. CCOC(=O)c1ccnc(C(=O)OCC)c1
2. N[C@@H](Cc1cc(-c2ccc(Cl)cc2Cl)cc(CP(=O)(O)O)c1O)C(=O)O
3. CCCCOc1c(C(=O)c2c(F)cc(C)cc2F)cnc2n[nH]cc12
4. COc1cc(COc2cc(N)c(Cl)cc2C(=O)CCC2CCN(CCNS(C)(=O)=O)CC2)cc(OC)c1
5. COC(=O)c1ccccc1NC(=O)c1ccc(F)cc1
6. O=C(OCCN1CCCCC1)c1c[nH]c2ccccc12
7. COC(=O)C1=C(C)NC(C)=C(C(=O)NCCCN2CCC(c3ccccc3)(c3ccccc3)CC2)C1c1ccc([N+](=O)[O-])cc1 (stereo not given)

Result block:
[5690, 9350, 1900, 4660, 7520, 10200, 441]

Please give cell count for each item listed below.
1. Cc1cc(OCc2nnc(SC3CCCC3)n2-c2cccnc2)ccc1-c1ccc(S(C)(=O)=O)cc1
2. CCCCC/C=C\C/C=C\C/C=C\C/C=C\CCCCNC(=O)c1ccc(O)cc1
3. CCCCC[C@H](O)/C=C/[C@H]1CC[C@H](O)[C@@H]1CCCCCCC(=O)O
4. COc1cc(C[C@H]2COC(=O)[C@@H]2Cc2ccc(O)c(OC)c2)ccc1O
5. COc1cc(N2CCN(C)CC2)ccc1Nc1nccc(-c2cn(C)c3cnccc23)n1

Result block:
1250
6120
6420
5600
6360

Please give cell count for each item listed below.
1. Cc1cc(N2CCOCC2)ccc1Nc1nc(NC2CCCCC2)c2[nH]cnc2n1
2. COC(=O)C1=CO[C@@H](O)[C@@H]2C(CO)=CC[C@H]12

Result block:
[4100, 10100]

* * *

experiment_summary: RCMB18 cell growth, single agent and combined, cisplatin and BGB IC40 combos (AID 1671462);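 further: cells exposed to compound for four days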
test_settings: RCMB18 medulloblastoma cells, cisplatin combo, at 5 µM, stronger effect = higher value
# binarize inhibition: threshold 60% inclusive, high side 1 (yes), low side 0 (no)

Please review the following examples before continuing.
molecule	group
O=c1[nH]c([C@@H]2CCCN2)nc2c1oc1ccc(Cl)cc12	0 (no)
Cc1ccc2nc(NCCN)c3ncc(C)n3c2c1	1 (yes)

Then this molecule:
Query block: Evaluate c1cc(Nc2cc(C3CC3)[nH]n2)nc(Nc2ccc3nc[nH]c3c2)n1 : inhibition at minimum 60%?
Result block: 1 (yes)
